- EXPERIMENTAL SYSTEM: EGFR L858R/T790M/C797S (Homo sapiens, UniProt P00533, C797S/L858R/T790M)
- Construct: expressed in transfected cells; host or cells: BaF3-LTC
- Sequence (P00533 25-1210 T790M/C797S/L858R): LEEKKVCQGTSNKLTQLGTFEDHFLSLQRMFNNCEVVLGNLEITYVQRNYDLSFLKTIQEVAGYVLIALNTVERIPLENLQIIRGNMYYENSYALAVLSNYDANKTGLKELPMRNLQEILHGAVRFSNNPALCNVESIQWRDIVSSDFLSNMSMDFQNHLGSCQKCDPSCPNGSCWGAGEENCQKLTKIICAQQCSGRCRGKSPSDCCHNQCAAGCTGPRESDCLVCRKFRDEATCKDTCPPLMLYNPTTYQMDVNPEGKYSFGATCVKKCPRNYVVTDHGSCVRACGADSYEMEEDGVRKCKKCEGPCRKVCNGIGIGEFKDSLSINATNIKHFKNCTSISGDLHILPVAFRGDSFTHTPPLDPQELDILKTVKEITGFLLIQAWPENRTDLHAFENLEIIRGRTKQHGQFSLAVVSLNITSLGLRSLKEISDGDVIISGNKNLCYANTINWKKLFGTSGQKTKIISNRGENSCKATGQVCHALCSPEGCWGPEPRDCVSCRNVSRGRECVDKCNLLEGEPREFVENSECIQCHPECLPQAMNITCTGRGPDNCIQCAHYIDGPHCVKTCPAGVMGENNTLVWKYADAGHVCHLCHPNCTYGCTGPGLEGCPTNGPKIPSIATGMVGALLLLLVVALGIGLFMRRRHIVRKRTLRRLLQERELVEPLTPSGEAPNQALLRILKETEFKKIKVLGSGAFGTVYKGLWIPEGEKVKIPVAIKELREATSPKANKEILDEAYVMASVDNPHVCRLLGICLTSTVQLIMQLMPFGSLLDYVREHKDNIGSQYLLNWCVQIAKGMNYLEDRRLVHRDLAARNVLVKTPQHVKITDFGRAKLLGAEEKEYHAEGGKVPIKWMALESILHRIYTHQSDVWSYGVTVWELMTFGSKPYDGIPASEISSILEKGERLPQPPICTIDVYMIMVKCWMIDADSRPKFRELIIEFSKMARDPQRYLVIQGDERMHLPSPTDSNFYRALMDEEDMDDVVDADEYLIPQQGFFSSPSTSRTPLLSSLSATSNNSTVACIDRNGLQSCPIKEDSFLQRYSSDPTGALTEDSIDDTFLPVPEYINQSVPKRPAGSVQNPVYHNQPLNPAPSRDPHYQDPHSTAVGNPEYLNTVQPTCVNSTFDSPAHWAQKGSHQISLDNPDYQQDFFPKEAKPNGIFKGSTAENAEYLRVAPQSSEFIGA
- ASSAY: EGFR degradation HTRF assay in BaF3-LTC cells
- Type: cell-based
- CONDITIONS USED: BaF3-LTC (L858R/T790M/C797S), maximum percentage of inhibition (degradation); read-out: BaF3-LTC Dmax (%)
Measured Dmax accompanies every entry in the list below.
Number in %, nothing else.

Solved entries:
Per the record, `CCOc1cc(N2CCC(N3CCN(C(=O)[C@H]4CN(c5cc(F)c([C@H]6CCC(=O)NC6=O)c(F)c5)CC4(C)C)CC3)CC2)c(CC)cc1Nc1ncc(Br)c(Nc2cc(F)c3nc(CC)ccc3c2P(C)(C)=O)n1` has Dmax of 95.5

Record CCOc1cc(N2CCC(N3CCN(CCc4cccc5c4n(CC)c(=O)n5C4CCC(=O)NC4=O)CC3)CC2)c(CC)cc1Nc1ncc(Br)c(Nc2cc(F)c3nc(CC)ccc3c2P(C)(C)=O)n1 (stereo not drawn) , field Dmax: 91.2

Consider now this further compound.
The reported Dmax of the compound `CCc1ccc2c(P(C)(C)=O)c(Nc3nc(Nc4cc(CC)c(N5CCC(C6CCN(CCc7cc(F)c([C@H]8CCC(=O)NC8=O)c(F)c7)CC6)CC5)cc4OC)ncc3Br)ccc2n1` was 88.7

---

- EXPERIMENTAL SYSTEM: EGFR L858R/C797S (Homo sapiens, UniProt P00533, C797S/L858R)
- Construct: expressed in transfected cells; host or cells: BaF3 LC
- Sequence (P00533 25-1210 C797S/L858R): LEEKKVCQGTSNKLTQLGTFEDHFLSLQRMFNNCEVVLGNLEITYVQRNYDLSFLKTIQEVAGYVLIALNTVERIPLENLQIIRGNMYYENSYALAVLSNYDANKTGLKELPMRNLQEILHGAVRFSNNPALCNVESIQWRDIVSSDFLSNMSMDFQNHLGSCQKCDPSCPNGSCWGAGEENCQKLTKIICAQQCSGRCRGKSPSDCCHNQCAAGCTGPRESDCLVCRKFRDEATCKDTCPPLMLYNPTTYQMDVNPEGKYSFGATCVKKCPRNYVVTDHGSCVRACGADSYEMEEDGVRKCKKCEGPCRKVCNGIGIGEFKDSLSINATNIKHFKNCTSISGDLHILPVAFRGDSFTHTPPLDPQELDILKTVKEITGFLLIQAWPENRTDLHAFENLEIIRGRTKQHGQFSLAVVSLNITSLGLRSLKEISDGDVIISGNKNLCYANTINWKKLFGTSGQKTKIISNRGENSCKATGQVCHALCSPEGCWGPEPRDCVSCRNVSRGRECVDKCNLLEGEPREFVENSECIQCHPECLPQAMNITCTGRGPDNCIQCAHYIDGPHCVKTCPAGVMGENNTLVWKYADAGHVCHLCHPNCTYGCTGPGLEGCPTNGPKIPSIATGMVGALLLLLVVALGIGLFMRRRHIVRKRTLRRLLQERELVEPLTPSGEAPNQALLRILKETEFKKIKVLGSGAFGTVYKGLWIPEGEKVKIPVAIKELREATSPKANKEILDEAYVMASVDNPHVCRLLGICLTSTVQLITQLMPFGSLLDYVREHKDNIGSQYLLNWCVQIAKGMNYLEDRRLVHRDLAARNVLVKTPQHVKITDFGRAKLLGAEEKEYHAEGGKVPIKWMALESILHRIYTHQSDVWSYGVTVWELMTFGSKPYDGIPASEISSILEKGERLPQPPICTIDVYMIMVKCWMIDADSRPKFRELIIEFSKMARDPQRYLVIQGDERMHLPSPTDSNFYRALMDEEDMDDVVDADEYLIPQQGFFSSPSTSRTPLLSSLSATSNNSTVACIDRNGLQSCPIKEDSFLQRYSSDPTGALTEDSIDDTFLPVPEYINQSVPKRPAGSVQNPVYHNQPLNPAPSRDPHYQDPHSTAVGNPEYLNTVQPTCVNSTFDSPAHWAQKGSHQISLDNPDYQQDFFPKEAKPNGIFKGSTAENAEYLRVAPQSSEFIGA
- ASSAY: EGFR degradation HTRF assay in BaF3 LC cells
- Type: cell-based
- CONDITIONS USED: BaF3 LC (L858R/C797S), maximum percentage of inhibition (degradation); read-out: BaF3 LC Dmax (%)
METRIC NAME: Dmax

Sample answers from the record:
Input `CCOc1cc(N2CCC(N3CCN(CCc4cc(F)c([C@H]5CCC(=O)NC5=O)c(F)c4)CC3)CC2)c(CC)cc1Nc1ncc(Br)c(Nc2ccc3nc(CC)ncc3c2P(C)(C)=O)n1` . Output Dmax: 88.2%

// CCOc1cc(N2CCC(N3CCN(CCc4cccc5c4n(CC)c(=O)n5C4CCC(=O)NC4=O)CC3)CC2)c(CC)cc1Nc1ncc(Br)c(Nc2cc(F)c3nc(CC)ccc3c2P(C)(C)=O)n1 (stereo not shown) : Dmax value = 94.1%

response.value for `CCc1ccc2c(P(C)(C)=O)c(Nc3nc(Nc4cc(CC)c(N5CCC(N6CCN(CCc7cc(F)c([C@H]8CCC(=O)NC8=O)c(F)c7)CC6)CC5)cc4OC)ncc3Br)ccc2n1` (field: Dmax) = 91.6%

Below: the item to evaluate.
Field Dmax (entry CCOc1cc(N2CCC(N3CCN(CCc4cccc5c4n(C)c(=O)n5C4CCC(=O)NC4=O)CC3)CC2)c(CC)cc1Nc1ncc(Br)c(Nc2ccc3nc(CC)ccc3c2P(C)(C)=O)n1 (stereo not shown) ) reads 94%

---

- EXPERIMENTAL SYSTEM: EGFR L858R/T790M/C797S (Homo sapiens, UniProt P00533, C797S/L858R/T790M)
- Construct: expressed in transfected cells; host or cells: BaF3-LTC
- ASSAY: EGFR degradation HTRF assay in BaF3-LTC cells
- Assay type: cell-based
- CONDITIONS USED: BaF3-LTC (L858R/T790M/C797S), maximum percentage of inhibition (degradation); read-out: BaF3-LTC Dmax (%)
METRIC NAME: Dmax (%)
Write the value in % as a bare number.

Query `CCc1cc(Nc2ncc(Br)c(Nc3ccc4nc(C)ccc4c3P(C)(C)=O)n2)c(OC)cc1N1CCC(N2CCN(C(=O)[C@@H]3CCN(c4cc(F)c([C@H]5CCC(=O)NC5=O)c(F)c4)C3)CC2)CC1` yields Dmax of 95.4

Item: `CCc1ccc2c(P(C)(C)=O)c(Nc3nc(Nc4cc(CC)c(N5CCC(N6CCN(CCc7cc(F)c([C@H]8CCC(=O)NC8=O)c(F)c7)CC6)CC5)cc4OC)ncc3Cl)ccc2n1` | Dmax: 92.3

Recorded Dmax (compound `CCOc1cc(N2CCC(N3CCN(CCc4cc(F)c([C@H]5CCC(=O)NC5=O)c(F)c4)CC3)CC2)c(CC)cc1Nc1ncc(Br)c(Nc2ccc3nc(CC)ccc3c2P(C)(C)=O)n1` ): 86.9

Now let's try a different one.
Reported Dmax of `CCc1cc(Nc2ncc(Br)c(Nc3ccc4c(=O)n(CC)ncc4c3P(C)(C)=O)n2)c(OC)cc1N1CCC(N2CCN(CCc3cc(F)c([C@H]4CCC(=O)NC4=O)c(F)c3)CC2)CC1` : 93.2
